test system: SK-OV-3 ovarian; test: NCI tumour cell line growth inhibition, 48 h
testReadout: TGI

// below: answered compounds
compound: CCN(CC)CC(C)(C)C(=O)/C=C/c1ccc(/C=C/C(=O)C(C)(C)CN(CC)CC)cc1
measuredTarget: SK-OV-3 ovarian
TGI: 4.08 µM
//
compound: COC(=O)C(=O)C(C(=O)C(=O)Nc1ccc(C)cc1)c1nc2ccc(C(=O)c3ccccc3)cc2[nH]c1=O (stereo not given)
measuredTarget: SK-OV-3 ovarian
TGI: > 100 µM
//
compound: CCOC(=O)NC(=O)c1cn(CCN2CCNCC2)c(=O)[nH]c1=O
measuredTarget: SK-OV-3 ovarian
TGI: > 100 µM
//
compound: COc1cc(/C=C\c2cc(/C=C\c3ccc(O)c(OC)c3)n(C(=O)CNc3ccc(Cl)cc3)n2)ccc1O
measuredTarget: SK-OV-3 ovarian
TGI: 13 µM
//
compound: CC1(C)CN=C(Nc2ccc(F)c(F)c2)S1
measuredTarget: SK-OV-3 ovarian
TGI: > 100 µM
//
compound: C=CCc1cccc(/C=N\N=C(/N)NO)c1O
measuredTarget: SK-OV-3 ovarian
TGI: 32.5 µM
//
compound: COC(=O)C1C(C(=O)OC)C1(Br)CBr (stereo not given)
measuredTarget: SK-OV-3 ovarian
TGI: > 100 µM
//
compound: O=C1CN(c2ccc(Cl)cc2)C(=O)CN1NCNN1CC(=O)N(c2ccc(Cl)cc2)CC1=O
measuredTarget: SK-OV-3 ovarian
TGI: > 100 µM
//
compound: O=C(Cn1c(C(=O)c2ccccc2)nc2ccccc21)c1ccc(F)cc1
measuredTarget: SK-OV-3 ovarian
TGI: > 100 µM

// switching to the query compound
IN: Give the measured TGI of CCCCCCN(C)Cc1ccc(OCCOc2ccc(CN(C)CCCCCC)cc2)cc1 .
OUT: 3.09 µM

###

test system: TK-10 renal; assay: NCI tumour cell line growth inhibition, 48 h
TGI: recorded values

// below: answered compounds
compound: COc1ccc2c(CCNS(=O)(=O)c3ccccc3)c(C(C)=O)[nH]c2c1
TGI: > 100 µM

compound: CC1OC(O[C@H]2CC[C@]3(C=O)[C@H]4CC[C@]5(C)[C@H](C6=CC(=O)OC6)CC[C@]5(O)[C@@H]4C=C[C@]3(O)C2)CC(O)C1O (stereo not given in full)
TGI: 1.64 µM

compound: O=C1C(=O)N(c2cccc(C(F)(F)F)c2)C(=O)C(=O)C1c1nc2ccccc2s1
TGI: > 100 µM

compound: O=C1C(Cl)C(c2cc3cc(Br)ccc3nc2Cl)N1c1c(Cl)cccc1Cl (stereo not given)
TGI: > 25 µM

IN: Give the measured TGI of COc1ccc2c(c1)C(=O)c1c-2n(CCCN)c(=O)c2cc(OC)c(OC)cc12 .
OUT: 2.99 µM

IN: Give the measured TGI of C#CCN(N=O)C(=O)NCCCC(NC(C)=O)C(=O)NCc1ccccc1 (stereo not given) .
OUT: > 100 µM

IN: Give the measured TGI of CC1CCc2c(c(CC3CC(=O)NC(=O)C3)nn2-c2ccccc2)C1 (stereo not given) .
OUT: > 100 µM

IN: Give the measured TGI of Cc1ccc(C)n1-n1c(-c2ccccc2)n[nH]c1=O .
OUT: > 100 µM

IN: Give the measured TGI of COc1ncnc2c1cnn2Cc1cn(CCCCO)nn1 .
OUT: > 100 µM

IN: Give the measured TGI of CC(CCCC1SCC2NC(=O)NC21)C(=O)O (stereo not given) .
OUT: > 100 µM

###

test system: MOLT-4 leukemia; test: NCI tumour cell line growth inhibition, 48 h; in the data active = GI50 below about 0.43 µM; inactive = the rest
Answer with one of the outcomes active, inactive

IN: Assay result, entry N#Cc1c(N)nc(N2CCSCC2)c(C#N)c1-c1ccc(O)cc1 — outcome?
OUT: inactive

IN: Assay result, entry CC[C@]12C=CCN3CC[C@@]4(c5ccc(OC)cc5N(C)[C@H]4[C@@](O)(C(=O)OC)[C@@H]1OC(=O)CCC(=O)N[C@H](Cc1c[nH]c4ccccc14)C(=O)OC)[C@@H]32 — outcome?
OUT: inactive

IN: Assay result, entry COc1ccc2c(c1)N(CCO)C1=C(C(=O)OC1)C2c1ccccc1 (stereo not drawn) — outcome?
OUT: inactive

IN: Assay result, entry O=C(NNC(=S)Nc1ccccc1)c1ccccn1 — outcome?
OUT: inactive

IN: Assay result, entry O=c1c(-c2ccc(O)cc2)coc2cc(OC3OC(CO)C(O)C(O)C3O)cc(O)c12 (stereo not drawn) — outcome?
OUT: inactive

###

TGI: recorded values
system: HL-60(TB) leukemia; test: NCI tumour cell line growth inhibition, 48 h

// below: answered molecules
molecule: CC(=N)N(C)O
TGI: > 100 µM
//
molecule: CC(=O)[O-].[O-]c1c(Cl)cc(Cl)cc1/C=N/Nc1ccccn1.[Zn+2]
TGI: 0.736 µM

IN: Give the measured TGI of Cc1cc2c(cc1C)C(=O)/C(=N/Nc1ccc(F)cc1)CCO2 .
OUT: > 100 µM

IN: Give the measured TGI of CCCOC1OC(CS(=O)(=O)O)C(O)C(O)C1O (stereo not drawn) .
OUT: > 100 µM

IN: Give the measured TGI of Cc1cc(NNC(=O)c2ccccc2O)nc(Nc2nc3ccccc3o2)n1 .
OUT: 6.99 µM

IN: Give the measured TGI of CO[C@@H]1[C@H]2[C@@H](C)c3ccoc3C[C@@H]2[C@@]2(C)CC[C@H](OC(=O)c3ccccc3)[C@](C)(C(=O)O)[C@]2(O)[C@@H]1OC(=O)c1ccccc1 .
OUT: > 50 µM

IN: Give the measured TGI of CN(C)c1ccc(C(=NN)c2ccc(N(C)C)cc2)cc1 .
OUT: 3.35 µM

IN: Give the measured TGI of O=C(Nc1nc(C23CC4CC(CC(C4)C2)C3)cs1)c1cc2c(ccc3ccccc32)oc1=O .
OUT: > 100 µM

IN: Give the measured TGI of COC(=O)C1=C(O)[C@H](C(=O)OC)[C@]2(O)[C@@H](C(=O)OC)[C@H]1C[C@@H](c1ccc(OC(=O)/C=C/c3ccco3)cc1)[C@@H]2C(=O)OC .
OUT: 75.1 µM

IN: Give the measured TGI of CC1=NN(C(=O)c2ccncc2)C(=O)C1N=Nc1ccc2ccccc2c1 (stereo not drawn) .
OUT: > 20.6 µM

IN: Give the measured TGI of NC(=S)NS(=O)(=O)c1ccc(F)cc1F .
OUT: > 100 µM

IN: Give the measured TGI of O=C1C2ON3c4ccccc4C(=O)C3(c3ccccc3)C2C(=O)N1c1ccccc1 (stereo not drawn) .
OUT: > 100 µM

IN: Give the measured TGI of CCCCN=C1OCc2[nH][nH]c(=O)c21 .
OUT: > 100 µM

IN: Give the measured TGI of Cc1nc(Nc2ccccc2)sc1C(=O)CC(=O)C(=O)NC12CC3CC(CC(C3)C1)C2 .
OUT: > 100 µM

IN: Give the measured TGI of CCOC(=O)NC(=S)c1ccc(O)c2ccccc12 .
OUT: 39.9 µM

IN: Give the measured TGI of Nc1c(N2CCCCC2)c(=O)nc2[nH]/c(=C\c3ccccc3)c(=O)n12 .
OUT: > 100 µM

IN: Give the measured TGI of COc1ccc(C[C@H](N)C(=O)N2C[C@@H](CO)C[C@@H](n3cnc4c(N(C)C)ncnc43)C2)cc1 .
OUT: > 100 µM

IN: Give the measured TGI of CCOC(=O)N1[C@@H]2CCC[C@@H]2C(=O)[C@@H]2CCC[C@@H]21 .
OUT: > 100 µM

IN: Give the measured TGI of C=C1C(=O)OC2CC3(C)CCCC(C)C3=CC12 (stereo not drawn) .
OUT: 2.59 µM

IN: Give the measured TGI of C/C(CCn1[nH]c(=O)ccc1=O)=N\Nc1ccc([N+](=O)[O-])cc1[N+](=O)[O-] .
OUT: > 100 µM

###

system: SK-OV-3 ovarian; assay: NCI tumour cell line growth inhibition, 48 h
TGI: recorded values

// below: answered compounds
smilesStr: O=C1C(=O)N(c2cccc(C(F)(F)F)c2)C(=O)C(=O)C1c1nc2ccccc2s1
measuredTarget: SK-OV-3 ovarian
testReadout: TGI
measuredValue: > 100 µM
//
smilesStr: O=[N+]([O-])c1cccc2nc3ccccc3c(NCCCN3CCCCC3)c12
measuredTarget: SK-OV-3 ovarian
testReadout: TGI
measuredValue: 0.1 µM
//
smilesStr: COC(=O)c1c2c(cc3c1CC1(Cc4cc5c(cc4C1)CCC5)C3)CCC2
measuredTarget: SK-OV-3 ovarian
testReadout: TGI
measuredValue: > 100 µM
//
smilesStr: Cc1nnc(-c2ccc(C)c(-c3ccc(C(=O)NCc4ccc(Cl)cc4)cc3)c2)o1
measuredTarget: SK-OV-3 ovarian
testReadout: TGI
measuredValue: > 25 µM

IN: Give the measured TGI of N#CCCN(CCC#N)c1ccc(C(N=Nc2ccc(Cl)cc2)=Nc2ccc(F)cc2)cc1 .
OUT: > 100 µM
